test system: Wolbachia pipientis; test: Anti-Wolbachia Cell-Based Screen; assay type: functional; design: scale not given: in the data most compounds retested in dose-response had high values; settings: 5 µM
The campaign covered roughly 48,000 compounds. About 13,000 (27%) showed an effect of 50% or more. This is one part of the list.
What Percent Effect was measured for each of the following?
Give the value in % but do not write % after it.

Incoming: Which measured Percent Effect value corresponds to O=C(NCc1nnc2n1CCCC2)N(Cc1ccccc1F)C1CC1 ?
Outgoing: -10.57

Incoming: Now this one: CCN(CC1CCOC1)C(=O)NCc1nnc2n1CCC2 (stereo unspecified)
Outgoing: 118.1

Incoming: How about this compound: CCN(Cc1noc(C(C)(C)C)n1)Cc1ccc(C#N)cc1F
Outgoing: -6.556

Incoming: Another compound to look at: CCN(CC1CCOC1)C(=O)NCc1ccc(-n2cncn2)nc1 (stereo unspecified)
Outgoing: 19.04

Incoming: Now give it for CN(CCN(C)S(=O)(=O)CC1CCOCC1)c1ccccc1 too.
Outgoing: -10.63

Incoming: And for CCN(Cc1ccco1)C(=O)NCc1nnc2n1CCC2 ?
Outgoing: -0.2431

---

test system: Wolbachia pipientis; experiment: Anti-Wolbachia Cell-Based Screen; format: functional; parameters: scale not given: in the data most compounds retested in dose-response had high values; details: 5 µM
About 13,000 (27%) of roughly 48,000 compounds showed an effect of 50% or more. The list shows a part of the results.
Can you tell me Percent Effect for the items I'm about to list?
Express it in %; write the number only.

Incoming: Request: Percent Effect, test system Wolbachia pipientis, entry CN(Cc1ccc(F)cc1)C(=O)CN1CCCC(Cn2cncn2)C1 (configuration not stated)
Outgoing: -5.404

Incoming: Same thing, different molecule: CN(Cc1cccc(F)c1)C(=O)CN1CCCC(Cn2cncn2)C1 (configuration not stated)
Outgoing: 16.73

Incoming: Next up: Cc1ccc(CN(C)C(=O)CN2CCCC(Cn3cncn3)C2)cc1 (configuration not stated)
Outgoing: 90.35

Incoming: Same thing, different molecule: Cc1ccc(CN(C)C(=O)CN2CCCC(Cn3cncn3)C2)o1 (configuration not stated)
Outgoing: 96.55

Incoming: Next entry: CNC(=O)CN1CCOC(c2ccccc2C(F)(F)F)C1 (configuration not stated)
Outgoing: -19.7

Incoming: Next record, please: CN(Cc1ccccc1)C(=O)CN1CCCC(Cn2cncn2)C1 (configuration not stated)
Outgoing: 97.22

Incoming: Next molecule: CNC(=O)CN1CCOC(c2cccc(N)n2)C1 (configuration not stated)
Outgoing: 126.4

Incoming: Another: CN(Cc1ccsc1)C(=O)CN1CCCC(Cn2cncn2)C1 (configuration not stated)
Outgoing: 109.8

Incoming: Further, for Cc1ccc(CN(C)C(=O)CN2CCCC2Cn2cncn2)cc1 (configuration not stated) ?
Outgoing: -14.18

Incoming: Do the same for CN(Cc1ccccc1)C(=O)CN1CCCCC1Cn1cncn1 (configuration not stated) please
Outgoing: -0.2947

Incoming: Moving on to O=C(CN1CCCC(Cn2cncn2)C1)NCc1ccco1 (configuration not stated)
Outgoing: 1.739

Incoming: Try this molecule next: CN(Cc1ccsc1)C(=O)CN1CCCC1Cn1cccn1 (configuration not stated)
Outgoing: -10.05

---

tested on: Wolbachia pipientis; experiment: Anti-Wolbachia Cell-Based Screen; format: functional; set-up: scale not given: in the data most compounds retested in dose-response had high values; details: 5 µM
The campaign covered roughly 48,000 compounds. About 13,000 (27%) showed an effect of 50% or more. Some of the results follow.
I'd be grateful if you could share measured Percent Effect for these entries.
Show the value, then the unit it is measured in.

Incoming: Please look up its Percent Effect: Cc1ccc(C(=O)N2CCc3nc4c(C)csc4c(=O)n3CC2)cn1
Outgoing: 130.6%

Incoming: Can you check Cc1ncsc1-c1nnc(C2CCN(Cc3cccc(F)c3F)CC2)o1 next?
Outgoing: 117.8%

Incoming: Now the same for COc1ccccc1CN1CC[C@H](c2nnc(-c3cncn3C)o2)C1
Outgoing: -5.308%

Incoming: Same question for CCc1nc(CN2CCN(C(=O)c3cc(C)nn3C)CC2)cs1 please.
Outgoing: -4.839%

Incoming: Likewise for Cc1csc2c(=O)n3c(nc12)CCN(C(=O)c1cccnc1)CC3 ?
Outgoing: -6.131%

Incoming: What do you get for Cc1csc2nc3n(c(=O)c12)CCN(C(=O)c1ccncc1)CC3 ?
Outgoing: 0.2415%

src = ChEMBL document CHEMBL3988442
